System: soybean
assayComment: Test C postemergence
Assay type: in vivo, Glycine max
assayConditions: Postemergence, 62 g ai/ha; scale 0 to 100 (0 no effect, 100 complete control)
Source text: […]
endpointLabel: Plant response rating, Soybean
Reply with the value as a number alone.

Prompt: Look up and report measured Plant response rating, Soybean for this entry: "O=Cc1cccc(Oc2ncc(I)cn2)c1-n1cc(Br)cn1"
Response: 5

Prompt: Specify reported Plant response rating, Soybean for the molecule shown: "FCc1cn(-c2ccccc2Oc2ncc(Cl)cn2)nn1"
Response: 65

Prompt: State, in one line, measured Plant response rating, Soybean of "Fc1cnc(Oc2ccccc2-n2cc(C(F)(F)F)cn2)nc1"
Response: 45

Prompt: Provide one value: measured Plant response rating, Soybean of "CC(C)c1cnn(-c2c(C#N)cccc2Oc2ncc(Cl)cn2)c1"
Response: 65

Prompt: Please list Plant response rating, Soybean recorded for the molecule "Fc1cnc(Oc2cccc(C(F)F)c2-n2cc(Cl)cn2)nc1"
Response: 85

Prompt: Read off the recorded Plant response rating, Soybean for "N#Cc1cccc(Oc2ncc(Cl)cn2)c1-n1cc(OC(F)F)cn1"
Response: 90

Prompt: // fetch Plant response rating, Soybean given entry "FC(F)(F)c1cnn(-c2c(Br)cccc2Oc2ncc(Cl)cn2)c1"
Response: 60

Prompt: Consider the molecule "Clc1cnc(Oc2cccc(Br)c2-n2cc(I)nn2)nc1" . State its measured Plant response rating, Soybean.
Response: 50

Prompt: Supply measured Plant response rating, Soybean of "Cc1cnc(Oc2cccc(C#N)c2-n2cc(C(F)(F)F)cn2)nc1" in your reply.
Response: 98

Prompt: Entry "Fc1cnc(Oc2cccc(C(F)F)c2-n2cc(C(F)(F)F)cn2)nc1" needs its Plant response rating, Soybean filled in; supply it.
Response: 75

Turning now to a further molecule:
Prompt: Output Plant response rating, Soybean of "FC(F)Oc1cnn(-c2ccccc2Oc2ncc(Cl)cn2)c1"
Response: 60
